Hey, just so you know, these numbers are from PubChem BioAssay AID504473.

tested on: YLR185W; assay: TOR pathway GFP reporter clone modulation in yeast – S. cerevisiae, GFP-tagged clone panel, flow cytometry (AID 504473);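 further: median GFP fluorescence of the cells measured by high-throughput flow cytometry; test concentration not given here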; conditions: S. cerevisiae GFP-tagged strains, 3 h
Threshold-based label: GFP ratio to DMSO under 1 gives Criterion met, GFP ratio to DMSO not under 1 gives Criterion not met.

Past entries and their recorded results:
Answer whether the molecule "CNc1nc(N)c([N+](=O)[O-])c(Nc2cccc(Cl)c2)n1" has GFP ratio to DMSO strictly less than 1
Criterion not met

Answer whether the molecule "CO[C@H]1C[C@@H]2CC[C@@H](C)[C@@](O)(O2)C(=O)C(=O)N2CCCC[C@H]2C(=O)O[C@H]([C@H](C)C[C@@H]2CC[C@@H](O)[C@H](OC)C2)CC(=O)[C@H](C)/C=C(\C)[C@@H](O)[C@@H](OC)C(=O)[C@H](C)C[C@H](C)/C=C/C=C/C=C/1C" has GFP ratio to DMSO strictly less than 1
Criterion met

Answer whether the molecule "CNc1nc(N)c([N+](=O)[O-])c(Nc2ccccc2OC)n1" has GFP ratio to DMSO strictly less than 1
Criterion not met

Answer whether the molecule "CNc1nc(N)c([N+](=O)[O-])c(Nc2ccccc2)n1" has GFP ratio to DMSO strictly less than 1
Criterion not met

API: the following record is the query input.
Answer whether the molecule "CNc1nc(N)c([N+](=O)[O-])c(Nc2cccc(F)c2)n1" has GFP ratio to DMSO strictly less than 1
Criterion met
